# System: BDF1 mice, P388 leukemia ip, median survival T/C
# PROTOCOL DETAILS: NCI In Vivo Anticancer Drug Screen. Data for tumor model P388 Leukemia (intraperitoneal) in B6D2F1 (BDF1) mice
# CONDITION SET: endpoint: median survival time; dose: 100.0 mg/kg/injection; schedule: Q04DX002 (ip); vehicle: saline with Tween-80; higher = longer survival
Inconclusive results and toxic doses are left out.
READOUT LABEL: T/C

Consider the following illustrative entries.
> print(dat)
                                   compound  readout.label  recorded.measurement
1  N#CC1CCCCC1C1(C#N)CCCCC1Cc1ccc2ccccc2n1 (centres undefined)            T/C       96 % of control
2  CCOC(=O)CN1C(=O)S/C(=C/c2ccc([N+](=O)[O-])o2)C1=O            T/C       94 % of control
3  NCC(O)CSc1ccc(Cl)c(Cl)c1 (centres undefined)            T/C      106 % of control

Problem: Bench note: what T/C did "Oc1cc(Cl)c(Cl)c(Cl)c1" show?
Result: 102 % of control

---

# Test system: BDF1 mice, P388 leukemia ip, median survival T/C
# PROTOCOL DETAILS: NCI In Vivo Anticancer Drug Screen. Data for tumor model P388 Leukemia (intraperitoneal) in B6D2F1 (BDF1) mice
# CONDITION SET: endpoint: median survival time; dose: 44.0 mg/kg/injection; schedule: Q01DX009 (ip); vehicle: saline with Tween-80
Inconclusive results and toxic doses are left out. Rule for the calls: active = survival T/C of 150% or more; inactive = T/C below 125% in these data.
Choose one outcome from this list and give only that: active, inactive

Solved entries (count: 3):
> print(dat)
                                   compound  classification
1            Cc1c(Cl)cccc1NC(=O)/C=C/C(=O)O        inactive
2  CN1CCN(CCCN2c3ccccc3Sc3ccc(C(F)(F)F)cc32)CC1        inactive
3  COc1cc2ccc3c(c2cc1OC)CN1CCc2cc4c(cc2C1C3)OCO4 (centres undefined)        inactive

Problem: // return assay outcome for O=NN(CCCl)C(=O)NC1CCC(NC(=O)N(CCCl)N=O)CC1 (centres undefined)
Result: active

---

# System: BDF1 mice, P388 leukemia ip, median survival T/C
# PROTOCOL DETAILS: NCI In Vivo Anticancer Drug Screen. Data for tumor model P388 Leukemia (intraperitoneal) in B6D2F1 (BDF1) mice
# CONDITION SET: endpoint: median survival time; dose: 25.0 mg/kg/injection; schedule: Q01DX009 (ip); vehicle: saline with Tween-80; higher = longer survival
Inconclusive results and toxic doses are left out.
Measured T/C values are reported for all entries that follow.

> print(dat)
                                   compound                         system.under.test  recorded.measurement
1  COc1ccc(C(Cn2ccnc2)Sc2ccc(Cl)c(Cl)c2)cc1 (stereo not given)  BDF1 mice, P388 leukemia ip, median survival T/C      110 % of control
2          C=CCCCCCCCCC(=O)NC[n+]1cccc(O)c1  BDF1 mice, P388 leukemia ip, median survival T/C      110 % of control
3  CCCC(C(=O)OCCN1CCCC12CCCCC2)C1CCCC1 (stereo not given)  BDF1 mice, P388 leukemia ip, median survival T/C      108 % of control

Problem: Bench note: what T/C did CC1=CC(C(O)CC(C)C)C(C)(Cc2ccc(C)cn2)NC1c1ccccc1 (stereo not given) show?
Result: 103 % of control

Problem: Bench note: what T/C did "O=C/C=C/c1cccc([N+](=O)[O-])c1" show?
Result: 110 % of control

Data credit: PubChem BioAssay AID328
